Parameter IC50: see the listing below.
Molecular target: human PD-L1 (Homo sapiens (Human), UniProt Q9NZQ7)
Sequence (Q9NZQ7 19-239): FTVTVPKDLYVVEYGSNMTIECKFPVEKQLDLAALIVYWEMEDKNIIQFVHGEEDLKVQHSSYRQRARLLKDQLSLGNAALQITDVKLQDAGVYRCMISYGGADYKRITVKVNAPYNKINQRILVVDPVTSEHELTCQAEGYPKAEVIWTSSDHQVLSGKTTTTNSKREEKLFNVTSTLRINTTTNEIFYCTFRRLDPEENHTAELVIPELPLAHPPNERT

Look over these answered cases.
COc1nc(-c2cccc(-c3cccc(Nc4nc(C(C)C)nc5cccnc45)c3C)c2Cl)ccc1CNC[C@@H]1CCC(=O)N1 :: < 10 nM
COc1nc(-c2cccc(-c3cccc(Nc4nc(C)nc5cccnc45)c3C)c2Cl)ccc1CN1CC[C@@](C)(O)C1 :: < 10 nM
COc1nc(-c2cccc(-c3cccc(Nc4nc(C)nc5cccnc45)c3C)c2Cl)ccc1CNCC(N)=O :: < 10 nM

Item `COc1nc(-c2cccc(-c3cccc(Nc4nc(C(F)(F)F)nc5cccnc45)c3C)c2Cl)ccc1CN1CC(C)(C(=O)O)C1` with human PD-L1 (Homo sapiens (Human), UniProt Q9NZQ7) - IC50? < 10 nM

Measured values drawn from patent US11866429B2 for this set.
